Reference for the values: ChEMBL document CHEMBL1132160

system: Human immunodeficiency virus 1; assay: Inhibitory activity of compound against human immunodeficiency virus type 1 (HIV-1) induced cytopathogenicity in MT-4 cells; type: functional, organism-based; settings: Human immunodeficiency virus 1, MT4
property.measured: EC50

// below: answered compounds
Fill in reported EC50 for this entry: CCOP(=O)(COCCn1cnc2c(N)nc(N)nc21)OCC
> 400 µg/mL

Specify EC50 for Nc1nccc2c1ncn2CCOCP(=O)(O)O and stop.
> 200 µg/mL

Give the reported EC50 for this compound. Nc1cc2c(ncn2CCOCP(=O)(O)O)c(O)n1
> 20 µg/mL

Name the recorded EC50 of the item CC(C)OP(=O)(COCCn1ccc(O)cc1=O)OC(C)C in your answer.
> 200 µg/mL

Give me measured EC50, please, for this compound: Nc1nc(N)c2ncn(CCOCP(=O)(O)O)c2n1
2.67 µg/mL

Answer with reported EC50 of CC(C)OP(=O)(COCCn1cnc2c(N)nc(Cl)nc21)OC(C)C
> 20 µg/mL

Annotate the compound Nc1ccn(CCOCP(=O)(O)O)c(=O)c1 with its measured EC50.
> 100 µg/mL

Report EC50, nothing else, for this compound: Nc1ncnc2c1ccn2CCOCP(=O)(O)O
7.56 µg/mL

Give a short answer stating reported EC50 for CC(C)OP(=O)(COCCn1cnc2c(Cl)nc(N)nc21)OC(C)C .
> 100 µg/mL

Give recorded EC50. Nc1ncc2ncn(CCOCP(=O)(O)O)c2n1
40.9 µg/mL

Next:
Fill in reported EC50 for this entry: Nc1nc(Cl)nc2c1ncn2CCOCP(=O)(O)O
> 100 µg/mL

Give me measured EC50, please, for this compound: Nc1nc2c(ncn2CCOCP(=O)(O)O)c(=O)[nH]1
> 0.2 µg/mL

Give the reported value of EC50 for this record: CCOP(=O)(O)COCCn1cnc2c(O)nc(N)nc21
2.6 µg/mL
